Origin of the recorded values: patent US8148367B2

- measurement_target: Recombinant human renin (Homo sapiens)
- Construct: isolate the active form (residues 67-406); made in house; host or cells: FreeStyle 293-F cells, transient expression of pcDNA3.1(+)/hREN
- assay_comment: In vitro enzymatic activity assay of renin inhibitors (fluorescence, QXL520/HiLyteFluo488 peptide substrate)
- Type: biochemical
- test_settings: recombinant human renin 3 nM, 1 μM substrate, pre-incubated 10 minutes at 37° C., incubation one hour, pH 7.4, 5% DMSO; read-out: IC50 of Exemplified Compounds Against Renin
Here, each record is paired with measured IC50 data.

Task item: For the compound shown here, "Cc1ccccc1-n1c(-c2ccccc2)c(C(=O)N2CCNCC2)n(CCNC(=O)c2ccccc2)c1=O" , give the reported IC50.
Reply: 0.5 to 1 µM

Task item: Let us now turn to "CCS(=O)(=O)Nc1ccccc1-n1c(-c2ccccc2)c(C(=O)N2CCNC[C@H]2Cc2ccccc2)[nH]c1=O"
Reply: 0.1 to 0.5 µM

Task item: Let us now turn to CC1CN(C(=O)c2[nH]c(=O)n(C3CCCCC3)c2-c2ccccc2)C(C)CN1 (stereo not drawn)
Reply: > 1 µM

Task item: Let us now turn to "O=C(c1[nH]c(=O)n(-c2ccccc2NS(=O)(=O)c2ccccc2)c1-c1ccccc1)N1CCNC[C@H]1Cc1ccccc1"
Reply: < 0.1 µM

Task item: Let us now turn to "Cc1ccccc1-n1c(-c2ccccc2)c(C(=O)N2CCNCC2)n(Cc2ccc(F)c(F)c2)c1=O"
Reply: 0.5 to 1 µM

Task item: Let us now turn to "O=C(c1c(-c2ccccc2)n(-c2cccc(N3CCOCC3)c2)c(=O)n1Cc1cccc(-n2cccc2)c1)N1CCNCC1"
Reply: < 0.1 µM

====

- measurement_target: Recombinant human renin (Homo sapiens, UniProt P00797)
- Construct: isolate the active form (residues 67-406); made in house; host or cells: FreeStyle 293-F cells, transient expression of pcDNA3.1(+)/hREN
- assay_comment: In vitro enzymatic activity assay of renin inhibitors (fluorescence, QXL520/HiLyteFluo488 peptide substrate)
- Type: biochemical
- test_settings: recombinant human renin 3 nM, 1 μM substrate, pre-incubated 10 minutes at 37° C., incubation one hour, pH 7.4, 5% DMSO; read-out: IC50 of Exemplified Compounds Against Renin
assay_endpoint: IC50

Task item: For the compound shown here, O=C(c1c(-c2ccccc2)n([C@H]2CCCC[C@H]2O)c(=O)n1Cc1cccc(Oc2ccccc2)c1)N1CCNCC1 [Example 152] , give the reported IC50.
Reply: 0.5 to 1 µM

***
Task item: For the compound shown here, CC(c1ccccc1)n1c(C(=O)N2CCNCC2)c(-c2ccccc2)n(C2CCCCC2)c1=O (stereo not shown) [Example 69] , give the reported IC50.
Reply: 0.1 to 0.5 µM

Task item: Let us now turn to Cc1ccccc1-n1c(-c2ccccc2)c(C(=O)N2CCNCC2)n(CCCNS(=O)(=O)c2ccccc2F)c1=O [Example 229]
Reply: 0.5 to 1 µM

Task item: Let us now turn to Cc1ccccc1-n1c(-c2ccccc2)c(C(=O)N2CCNCC2)n(CCCNC(=O)CC(C)C)c1=O [Example 165]
Reply: > 1 µM

====

Here, each record is paired with measured pIC50 data.
- measurement_target: Recombinant human renin (Homo sapiens, UniProt P00797)
- Construct: isolate the active form (residues 67-406); made in house; host or cells: FreeStyle 293-F cells, transient expression of pcDNA3.1(+)/hREN
- assay_comment: In vitro enzymatic activity assay of renin inhibitors (fluorescence, QXL520/HiLyteFluo488 peptide substrate)
- Format: biochemical
pIC50: −log10 of the molar value.

Task item: For the compound shown here, "Cc1ccccc1-n1c(-c2ccccc2)c(C(=O)N2CCNCC2)n(CCCNC(=O)Oc2ccccc2)c1=O" , give the reported pIC50.
Reply: < 6.00

Consider now this further compound.
Task item: For the compound shown here, "Cc1ccccc1-n1c(-c2ccccc2)c(C(=O)N2CCNCC2)n(CCNC(=O)Oc2ccccc2)c1=O" , give the reported pIC50.
Reply: < 6.00

====

- measurement_target: Recombinant human renin (Homo sapiens)
- Construct: isolate the active form (residues 67-406); made in house; host or cells: FreeStyle 293-F cells, transient expression of pcDNA3.1(+)/hREN
- Sequence (P00797 67-406): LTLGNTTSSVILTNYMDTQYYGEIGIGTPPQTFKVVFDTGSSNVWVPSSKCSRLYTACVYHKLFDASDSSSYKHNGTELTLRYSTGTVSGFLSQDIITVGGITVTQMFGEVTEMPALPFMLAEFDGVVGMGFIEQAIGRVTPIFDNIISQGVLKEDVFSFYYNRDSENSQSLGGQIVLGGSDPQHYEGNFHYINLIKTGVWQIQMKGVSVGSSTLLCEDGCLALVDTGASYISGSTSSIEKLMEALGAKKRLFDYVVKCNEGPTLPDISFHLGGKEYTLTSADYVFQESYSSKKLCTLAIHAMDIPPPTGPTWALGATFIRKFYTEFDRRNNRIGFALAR
- assay_comment: In vitro enzymatic activity assay of renin inhibitors (fluorescence, QXL520/HiLyteFluo488 peptide substrate)
- Format: biochemical
- test_settings: recombinant human renin 3 nM, 1 μM substrate, pre-incubated 10 minutes at 37° C., incubation one hour, pH 7.4, 5% DMSO; read-out: IC50 of Exemplified Compounds Against Renin
Here, each record is paired with measured IC50 data.

Task item: For the compound shown here, "CC(C)CC(=O)NCCCn1c(C(=O)N2CCNCC2)c(-c2ccccc2)n(-c2cccc(N3CCOCC3)c2)c1=O" , give the reported IC50.
Reply: > 1 µM

Task item: Let us now turn to "O=C(c1c(-c2ccccc2)n(-c2cccc(N3CCOCC3)c2)c(=O)n1CCCNS(=O)(=O)c1ccccc1Cl)N1CCNCC1"
Reply: < 0.1 µM

Task item: Let us now turn to "Cc1ccccc1-n1c(-c2ccccc2)c(C(=O)N2CCNCC2)n(CCCNC(=O)C2CCCCC2)c1=O"
Reply: > 1 µM

Consider now this further compound.
Task item: For the compound shown here, "O=C(c1c(-c2ccccc2)n(-c2ccccc2)c(=O)n1Cc1c[nH]cn1)N1CCNCC1" , give the reported IC50.
Reply: > 1 µM

====

Here, each record is paired with measured IC50 data.
- measurement_target: Recombinant human renin (Homo sapiens, UniProt P00797)
- Construct: isolate the active form (residues 67-406); made in house; host or cells: FreeStyle 293-F cells, transient expression of pcDNA3.1(+)/hREN
- assay_comment: In vitro enzymatic activity assay of renin inhibitors (fluorescence, QXL520/HiLyteFluo488 peptide substrate)
- Format: biochemical
- test_settings: recombinant human renin 3 nM, 1 μM substrate, pre-incubated 10 minutes at 37° C., incubation one hour, pH 7.4, 5% DMSO; read-out: IC50 of Exemplified Compounds Against Renin

# annotated cases, reported IC50 shown
Task item: For the compound shown here, CS(=O)(=O)Nc1ccccc1-n1c(-c2ccccc2)c(C(=O)N2CCNC[C@H]2Cc2ccccc2)[nH]c1=O [Example 118] , give the reported IC50.
Reply: < 100 nM

Task item: Let us now turn to O=C(c1[nH]c(=O)n(-c2ccc3c(c2)NCCC3)c1C1CC1)N1CCNC[C@H]1Cc1ccccc1 [Example 134]
Reply: 500 to 1000 nM

Task item: Let us now turn to O=C(c1[nH]c(=O)n(C2CCCCC2)c1-c1ccccc1)N1CCNCC1 [Example 29]
Reply: 500 to 1000 nM

Task item: Let us now turn to O=C(Nc1ccccc1-n1c(-c2ccccc2)c(C(=O)N2CCNC[C@H]2Cc2ccccc2)[nH]c1=O)C1CC1 [Example 120]
Reply: 100 to 500 nM

Task item: Let us now turn to O=C(c1cccc(Cn2c(C(=O)N3CCNCC3)c(-c3ccccc3)n(-c3cccc(N4CCOCC4)c3)c2=O)c1)N1CCCCC1 [Example 58]
Reply: > 1000 nM

***
Task item: For the compound shown here, C[C@H]1CN(C(=O)c2[nH]c(=O)n(C3CCCCC3)c2-c2ccccc2)CCN1 [Example 39] , give the reported IC50.
Reply: > 1000 nM

Task item: Let us now turn to Cc1ccccc1-n1c(-c2ccccc2)c(C(=O)N2CCNCC2)n(CCCNC(=O)c2ccccc2Cl)c1=O [Example 241]
Reply: > 1000 nM

Task item: Let us now turn to COCCCOc1cccc(-n2c(-c3ccccc3)c(C(=O)N3CCNCC3)[nH]c2=O)c1 [Example 35]
Reply: 500 to 1000 nM

====

Here, each record is paired with measured IC50 data.
- measurement_target: Recombinant human renin (Homo sapiens)
- Construct: isolate the active form (residues 67-406); made in house; host or cells: FreeStyle 293-F cells, transient expression of pcDNA3.1(+)/hREN
- assay_comment: In vitro enzymatic activity assay of renin inhibitors (fluorescence, QXL520/HiLyteFluo488 peptide substrate)
- Type: biochemical
- test_settings: recombinant human renin 3 nM, 1 μM substrate, pre-incubated 10 minutes at 37° C., incubation one hour, pH 7.4, 5% DMSO; read-out: IC50 of Exemplified Compounds Against Renin

# annotated cases, reported IC50 shown
Task item: For the compound shown here, COCCN1CCOc2ccc(-n3c(-c4ccccc4)c(C(=O)N4CCNC[C@H]4Cc4ccccc4)[nH]c3=O)cc21 [Example 137] , give the reported IC50.
Reply: < 100 nM

Task item: Let us now turn to COc1cccc(-n2c(-c3ccccc3)c(C(=O)N3CCNC[C@H]3Cc3ccccc3)[nH]c2=O)c1OC [Example 112]
Reply: < 100 nM

Task item: Let us now turn to COc1cccc(Cn2c(C(=O)N3CCNCC3)c(-c3ccccc3)n(-c3ccccc3)c2=O)c1 [Example 83]
Reply: 100 to 500 nM

Task item: Let us now turn to O=C(NC[C@@H]1CNCCN1C(=O)c1[nH]c(=O)n([C@@H]2CCCC[C@H]2O)c1-c1ccccc1)c1ccccc1 [Example 107]
Reply: 500 to 1000 nM

Task item: Let us now turn to COc1ccc(-c2cc(Cn3c(C(=O)N4CCNCC4)c(-c4ccccc4)n(C4CCCCC4)c3=O)ccn2)cn1 [Example 17F]
Reply: 100 to 500 nM

***
Task item: For the compound shown here, COCCCOc1cccc(-n2c(-c3ccccc3)c(C(=O)N3CCNCC3)n(Cc3cccc(OCCOC)c3)c2=O)c1 [Example 192] , give the reported IC50.
Reply: > 1000 nM

Task item: Let us now turn to Cc1ccccc1-n1c(-c2ccccc2)c(C(=O)N2CCNCC2)n(CCNC(=O)c2ccccc2Cl)c1=O [Example 231]
Reply: > 1000 nM
